system: BXPC3 (Pancreas); assay: Cell proliferation MTS assay, BXPC3; format: cell-based; conditions: Homo sapiens, BXPC-3, 72 hours
parameter: pIC50
Give bare numbers, as −log10 of the molar value.

Recall the recorded pIC50 for "O=c1cc(N2CCOCC2)oc2c(-c3ccc4c(c3)OCCO4)csc12" with BXPC3 (Pancreas) and state it.
5.47

====

For each entry below, report its pIC50 value.
test system: AKT Ser473 phosphorylation in renal cell carcinoma (786-O) Cell Line; assay: pAKT Ser473 ELISA in 786-O cells stimulated by Bv8, VEGF, IGF; assay type: cell-based; details: Homo sapiens, 786-0, 786-O; stimulant Bv8; read-out: Concentration Required to Inhibit pAKT to Half-maximal Levels
Answers are plain numbers, as −log10 of the molar value.

CCOC(=O)c1ccc(-c2csc3c(=O)cc(N4CCOCC4)oc23)cc1 [Compound 25] = 6.16

Consider the compound O=c1cc(N2CCOCC2)oc2c(-c3ccc4c(c3)OCCO4)csc12 [Compound 28] and give its measured pIC50.
6.42

====

tested on: HUVEC (Endothelial-noncancer); experiment: Cell proliferation MTS assay, HUVEC; assay type: cell-based; settings: Homo sapiens, 72 hours
parameter: pIC50
Answers are plain numbers, as −log10 of the molar value.

So what pIC50 did "O=c1cc(N2CCOCC2)oc2c(-c3ccc4c(c3)OCCO4)csc12" get with HUVEC (Endothelial-noncancer)?
5.91

====

Hi there, I'd appreciate the recorded pIC50 for every entry that follows.
test system: PC3 cells; test: PC3 prostate cancer cell proliferation (WST); type: cell-based; settings: Homo sapiens, PC-3; 72 hours; read-out: IC50 PC3 Proliferation
Numbers only, as −log10 of the molar value.

Here are 3 molecules together with their reported answers.
Cc1ccc(-c2csc3c(=O)cc(N4CCOCC4)oc23)cc1 [Compound 15] = 5.35
O=c1cc(C2CCOCC2)oc2c(-c3ccccc3)cccc12 [Compound 67] = 4.02
O=C(NCCN1CCOCC1)c1cccc(-c2csc3c(=O)cc(N4CCOCC4)oc23)c1 [Compound 42] = 5.11

Okay, next one:
For the molecule shown here, Nc1cccc(C#Cc2csc3c(=O)cc(N4CCOCC4)oc23)c1 [Compound 96] , give the reported pIC50.
4.60

====

system: MDA-MB468 (Breast); experiment: Cell proliferation MTS assay, MDA-MB468; assay type: cell-based; conditions: Homo sapiens, MDA-MB-468, 72 hours
parameter: pIC50
One number for each entry, as −log10 of the molar value.

I am curious: what pIC50 value has been reported for "O=c1cc(N2CCOCC2)oc2c(-c3ccc4c(c3)OCCO4)csc12" ?
5.57

====

system: PC3 cells; test: PC3 prostate cancer cell proliferation (WST); type: cell-based; conditions: Homo sapiens, PC-3; 72 hours; read-out: IC50 PC3 Proliferation
In plain terms, low IC50, meaning strictly below 20 µM, gives YES, and everything else gives NO.

Consider the following illustrative entries.
CNc1ccc(-c2csc3c(=O)cc(N4CCOCC4)oc23)cc1 [Compound 41] = YES
O=c1cc(N2CCOCC2)oc2c(-c3ccsc3)csc12 [Compound 26] = YES
O=C(Nc1ccccn1)c1ccc(-c2csc3c(=O)cc(N4CCOCC4)oc23)cc1 [Compound 61] = YES

IC50 strictly < 20 µM for this molecule? O=C(O)c1ccc(-c2csc3c(=O)cc(N4CCOCC4)oc23)cc1 [Compound 100]
NO

Now this one: CN1CCN(c2ncc(-c3csc4c(=O)cc(N5CCOCC5)oc34)cn2)CC1 [Compound 43]
YES

Continue with O=c1cc(N2CCOCC2)oc2c(-c3ccc4[nH]ccc4c3)csc12 [Compound 19]
YES

Cool, now COc1cc(-c2csc3c(=O)cc(N4CCOCC4)oc23)ccc1N [Compound 95]
NO

For CS(=O)(=O)c1ccc(-c2csc3c(=O)cc(N4CCOCC4)oc23)cc1 [Compound 13] then?
YES

Same thing, different molecule: O=c1cc(N2CCOCC2)oc2c(-c3ccncc3)csc12 [Compound 2]
YES

# iterate: O=c1cc(N2CCOCC2)oc2c(-c3ccoc3)csc12 [Compound 27]
YES

Input O=c1cc(N2CCOCC2)oc2c(-c3ccc4c(c3)OCO4)csc12 [Compound 7]
YES

Now the same for O=C(Nc1cccc(-c2csc3c(=O)cc(N4CCOCC4)oc23)c1)c1cccnc1 [Compound 46]
NO

Request: COc1cc(C#Cc2csc3c(=O)cc(N4CCOCC4)oc23)cc(OC)c1 [Compound 40]
YES

And O=C(NCc1ccccc1)c1csc2c(=O)cc(N3CCOCC3)oc12 [Compound 53] ?
NO

Item: CCN(CC)C(=O)c1csc2c(=O)cc(N3CCOCC3)oc12 [Compound 52]
NO

Item: O=C(NCc1ccccc1)c1ccc(-c2csc3c(=O)cc(N4CCOCC4)oc23)cc1 [Compound 50]
YES

Thanks! And COC(=O)c1cccc(-c2csc3c(=O)cc(N4CCOCC4)oc23)c1 [Compound 45] ?
YES

====

System: PC3 cells
Test: PC3 prostate cancer cell proliferation (WST)
Assay type: cell-based
Conditions: Homo sapiens, PC-3; 72 hours; read-out: IC50 PC3 Proliferation
Description: PC3 cells were obtained from the American Type Culture Collection (ATCC, Manassas, Va., Cat.# CRL-1435) Two thousand cells from the prostate cancer line PC3 were placed in 50 μL of complete RPMI 1640 media (Invitrogen, Carlsbad, Calif., Cat.#22400-105) with 10% fetal bovine serum (Invitrogen, Carlsbad, Calif., Cat.#10438-026) into each well of 96 well cell culture plates in a hexaplicate sampling pattern. […]
Define the label as MET when IC50 is strictly less than 9 µM and as NOT MET in all remaining cases.

Check out these entries, answers already filled in.
O=c1cc(N2CCOCC2)oc2c(C#CCO)csc12 = NOT MET
O=c1cc(N2CCOCC2)oc2c(-c3cccc(O)c3)csc12 = NOT MET
O=C(Nc1ccccn1)c1cccc(-c2csc3c(=O)cc(N4CCOCC4)oc23)c1 = MET
O=c1cc(N2CCOCC2)oc2c(C#Cc3ccsc3)csc12 = MET
O=c1cc(N2CCOCC2)oc2c(C#Cc3ccccc3)csc12 = MET

# strict comparison: is reported IC50 < 9 µM? input = "O=C(NCc1ccc(Cl)cc1)c1csc2c(=O)cc(N3CCOCC3)oc12"
NOT MET

====

tested on: PC3 cells; assay: PC3 prostate cancer cell proliferation (WST); assay type: cell-based; conditions: Homo sapiens, PC-3; 72 hours; read-out: IC50 PC3 Proliferation
// returns rule not met unless IC50 is strictly below 8 µM, in which case rule met

O=c1cc(N2CCOCC2)oc2c(-c3ccc(Cl)nc3)csc12 [Compound 32] = rule not met
COc1ccc(-c2csc3c(=O)cc(N4CCOCC4)oc23)cc1 [Compound 8] = rule met
O=c1cc(N2CCOCC2)oc2c(-c3ccc(C(F)(F)F)cc3)csc12 [Compound 20] = rule not met
O=c1cc(N2CCOCC2)oc2c(-c3ccc(Br)cc3)csc12 [Compound 101] = rule not met
O=C(NCCN1CCOCC1)c1csc2c(=O)cc(N3CCOCC3)oc12 [Compound 90] = rule not met

IC50 strictly < 8 µM for this molecule? O=C(Nc1ccc(-c2csc3c(=O)cc(N4CCOCC4)oc23)cc1)c1ccccc1 [Compound 34]
rule met

Now the molecule O=C(Nc1ccncc1)c1cccc(-c2csc3c(=O)cc(N4CCOCC4)oc23)c1 [Compound 64]
rule not met

Thanks! And O=c1cc(N2CCOCC2)oc2c(-c3cccc(C(F)(F)F)c3)csc12 [Compound 92] ?
rule met

====

tested on: 786-O cells; assay: Cellular proliferation (Example B method), 786-O; type: cell-based; conditions: Homo sapiens, 786-0, renal cell carcinoma
Exercise: state measured pIC50 for each of the compounds provided.
Numbers only, as −log10 of the molar value.

Before answering, review these 2 worked examples.
O=c1cc(N2CCOCC2)oc2c(-c3ccc4c(c3)OCCO4)csc12 = 5.48
CN(C)c1ccc(-c2csc3c(=O)cc(N4CCOCC4)oc23)cc1 = 5.20

// below: pIC50 requested for another compound
So what does the record say about pIC50 for "O=c1cc(N2CCOCC2)oc2c(-c3ccccc3)csc12" ?
5.02

====

system: PC3 cells; experiment: PC3 prostate cancer cell proliferation (WST); format: cell-based; conditions: Homo sapiens, PC-3; 72 hours; read-out: IC50 PC3 Proliferation
Please use fulfilled for IC50 under 9 µM and not fulfilled for everything else, ties included.

COC(=O)c1scc(-c2csc3c(=O)cc(N4CCOCC4)oc23)c1O = not fulfilled
S=c1cc(N2CCOCC2)oc2c(-c3ccccc3)cccc12 = not fulfilled

Find out if reported IC50 for "O=c1cc(N2CCOCC2)oc2c(-c3ccc(O)cc3)csc12" is less than 9 µM
fulfilled

What do you get for "O=c1cc(N2CCOCC2)oc2c(-c3ccco3)csc12" ?
fulfilled
